Read-out: CYP4A11 (gene 1579)
ASSAY_SUMMARY: LTEA_HepaRG_CYP4A11: Life Technologies and Expression Analysis (LTEA) Assay for CYP4A11 using HepaRG (AID 2283486)
CONDITION_LABEL: mRNA level, 48 h; actives raise or lower the signal
Active and inactive are the calls of the source. How the source made its calls: active means hit-call score of the fitted dose curve at least 0.9, where 1 is the maximum; inactive means score below 0.9.
Possible outcomes: 1.0 for active, 0.0 for inactive

INSERT INTO measurements (molecule, class) VALUES
  ('CCCCOC(=O)CCCCC(=O)OCCCC', 0.0),
  ('CC(C)c1cccc(C(C)C)c1NC(=O)NS(=O)(=O)c1cc(C(C)(C)O)co1', 1.0),
  ('CC(=O)S[C@H](C(=O)N[C@H]1Cc2ccccc2[C@H]2CCC[C@@H](C(=O)O)N2C1=O)C(C)C', 0.0),
  ('O=C(Oc1ccccc1)c1cccc(C(=O)Oc2ccccc2)c1', 0.0),
  ('CCCCC(CC)CO (stereo not drawn)', 0.0),
  ('CC(=O)O', 0.0),
  ('CC(C)COC(=O)CCCCC(=O)OCC(C)C', 0.0),
  ('O=C(NS(=O)(=O)/C=C/c1cccs1)c1ccc(F)cc1Br', 1.0),
  ('Cc1occc(=O)c1O', 0.0),
  ('CC(=O)OCC(COC(C)=O)OC(C)=O', 0.0),
  ('O=C(O)CC(O)(CC(=O)O)C(=O)O', 0.0),
  ('c1ccc2occc2c1', 0.0),
  ('C=CCc1ccc(OC)c(OC)c1', 0.0),
  ('COC(=O)[C@H]1[C@H]2C[C@@H]3c4[nH]c5cc(OC)ccc5c4CCN3C[C@H]2C[C@@H](OC(=O)c2cc(OC)c(OC)c(OC)c2)[C@@H]1OC', 1.0),
  ('Nc1nc(Cl)nc2c1ncn2[C@H]1C[C@H](O)[C@@H](CO)O1', 1.0),
  ('CCOCCOCCO', 0.0),
  ('O=C1NC(=O)C(c2ccccc2)(c2ccccc2)N1', 1.0),
  ('CCc1cc(C2=C(C(=O)O)N(c3ccccc3C(F)(F)F)S(=O)(=O)c3ccccc32)cc2c1OCO2', 1.0),
  ('O=NO', 0.0),
  ('Cc1cc(SC2=C(O)C[C@@](CCc3ccc(N)cc3)(C(C)C)OC2=O)c(C(C)(C)C)cc1CO', 1.0),
  ('CN(C)CCCN1c2ccccc2Sc2ccc(Cl)cc21', 1.0),
  ('CCCCCCC(CCCCCCCCCCC(=O)OCC(COC(C)=O)OC(C)=O)OC(C)=O (stereo not drawn)', 0.0),
  ('CS(=O)(=O)c1ccc([C@@H](C[C@H]2CCC(=O)C2)C(=O)Nc2cnccn2)cc1Cl', 0.0),
  ('CC(=O)O[C@]1(C(C)=O)CC[C@H]2[C@@H]3C=C(Cl)C4=CC(=O)[C@@H]5C[C@@H]5[C@]4(C)[C@H]3CC[C@@]21C', 0.0),
  ('Oc1ccc(O)cc1', 0.0),
  ('N[C@@H](Cc1c[nH]c2ccccc12)C(=O)O', 0.0),
  ('O=C1O[C@H]([C@H](O)CO)C(O)=C1O', 0.0),
  ('COC(=O)CCC(=O)OC', 0.0),
  ('O=C(N[C@@H](c1ccccc1)[C@@H]1CCCCN1)c1cccc(C(F)(F)F)c1Cl', 1.0),
  ('O=C1c2c(O)cccc2Cc2cccc(O)c21', 0.0),
  ('O=Cc1ccccc1C=O', 0.0),
  ('CC(=O)OC1CC(C)OC(C)O1 (stereo not drawn)', 0.0),
  ('CN(C)C(=O)NC1(c2ccccc2)CCN(CC[C@@]2(c3ccc(F)c(F)c3)CN(C(=O)c3ccccc3)CCO2)CC1', 1.0),
  ('O=C1CCCCC1', 0.0),
  ('Cc1c(C)c2c(c(C)c1O)CCC(C)(COc1ccc(CC3SC(=O)NC3=O)cc1)O2 (stereo not drawn)', 1.0),
  ('OCC(CO)n1cnc(-c2ccc(F)cc2)c1-c1ccnc(Oc2ccccc2)n1', 1.0),
  ('CCN(CC)CCOc1ccc(C(=C(Cl)c2ccccc2)c2ccccc2)cc1', 1.0),
  ('CO[C@@H]1COCC[C@@H]1N[C@@H]1CC[C@@](C(=O)N2CCc3ncc(C(F)(F)F)cc3C2)(C(C)C)C1', 0.0),
  ('CC(COCC(C)OC(=O)c1ccccc1)OC(=O)c1ccccc1 (stereo not drawn)', 0.0),
  ('CC(C)OC(=O)C(C)(C)Oc1ccc(C(=O)c2ccc(Cl)cc2)cc1', 1.0),
  ('CCC(C)N(C)C(=O)c1cc2ccccc2c(-c2ccccc2Cl)n1 (stereo not drawn)', 1.0),
  ('Cc1ccc(C(C)(C)C)c(O)c1', 0.0),
  ('CC(=O)CC(c1ccccc1)c1c(O)c2ccccc2oc1=O (stereo not drawn)', 0.0),
  ('O=C1OC(c2ccc(O)cc2)(c2ccc(O)cc2)c2ccccc21', 1.0),
  ('O=C(O)c1[nH]n(-c2ccc(S(=O)(=O)O)cc2)c(=O)c1N=Nc1ccc(S(=O)(=O)O)cc1', 0.0),
  ('NC1CCCCC1', 0.0),
  ('COc1ccc(C(=O)Nc2nc3ccccc3c(NCc3ccccc3)c2C#N)cc1', 1.0),
  ('Cc1cn([C@H]2C=C[C@@H](CO)O2)c(=O)[nH]c1=O', 0.0);
